TARGET_OF_ASSAY: Histone deacetylase 8 (Homo sapiens)
Sequence (Q9BY41 whole entry): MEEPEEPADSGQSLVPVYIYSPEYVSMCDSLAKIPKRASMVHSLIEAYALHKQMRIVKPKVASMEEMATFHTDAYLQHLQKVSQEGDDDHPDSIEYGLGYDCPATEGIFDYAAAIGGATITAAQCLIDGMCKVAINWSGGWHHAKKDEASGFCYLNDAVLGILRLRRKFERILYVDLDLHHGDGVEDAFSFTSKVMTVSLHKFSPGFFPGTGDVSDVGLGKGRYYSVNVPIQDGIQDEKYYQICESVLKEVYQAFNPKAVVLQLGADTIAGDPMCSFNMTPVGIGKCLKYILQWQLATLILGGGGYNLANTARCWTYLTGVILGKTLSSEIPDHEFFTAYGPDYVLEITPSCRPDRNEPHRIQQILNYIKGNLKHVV
EXPERIMENTAL_DETAILS: Inhibition of recombinant human full length C-terminal His-tagged HDAC8 expressed in baculovirus infected insect cells measured after 40 mins by HDAC-Glo1/2 luminescent assay
pIC50: −log10 of the molar value.
Kind request: treat 6 as inclusive, so pIC50 at 6 or higher is true, anything lower is false.

INSERT INTO assay_data (molecule, target_of_assay, classification) VALUES
  ('O=C(NO)c1ccc(Cn2cc(CN3CCCC3)c3ccccc32)cc1', 'Histone deacetylase 8 (Homo sapiens)', 'true'),
  ('Cc1c(C)n(Cc2ccc(C(=O)NO)cc2)c2ccccc12', 'Histone deacetylase 8 (Homo sapiens)', 'false'),
  ('CN1CCCC1c1cn(Cc2ccc(C(=O)NO)cc2)c2ccccc12 (racemic)', 'Histone deacetylase 8 (Homo sapiens)', 'true'),
  ('Cn1cncc1-c1cn(Cc2ccc(C(=O)NO)cc2)c2ccccc12', 'Histone deacetylase 8 (Homo sapiens)', 'true'),
  ('CN(C)Cc1cn(Cc2ccc(C(=O)NO)cc2)c2ccccc12', 'Histone deacetylase 8 (Homo sapiens)', 'true'),
  ('CN1CCc2c(n(Cc3ccc(C(=O)NO)cc3)c3ccccc23)C1', 'Histone deacetylase 8 (Homo sapiens)', 'false');

====

TARGET_OF_ASSAY: Polyamine deacetylase HDAC10 (Homo sapiens)
EXPERIMENTAL_DETAILS: Inhibition of dye-labeled tracer binding to HDAC10 (unknown origin) transfected in human HeLa cells measured after 2 hrs by nano-luciferase reporter gene-based BRET assay
Type: cell-based
pIC50: −log10 of the molar value.
VALUE_KIND: pIC50

INSERT INTO assay_data (smiles, observed) VALUES
  ('CN(C)CCc1cn(Cc2ccc(C(=O)NO)cc2)c2ccccc12', 7.60),
  ('O=C(CCCCCCNC(=O)c1cnc(N(c2ccccc2)c2ccccc2)nc1)NO', 5.80),
  ('O=C(NO)c1ccc(Cn2cc(CCO)c3ccccc32)cc1', 6.70),
  ('O=C(NO)c1ccc(Cn2c3ccccc3c3ccccc32)cc1', 5.40),
  ('CC(C)(C)OC(=O)NCc1cn(Cc2ccc(C(=O)NO)cc2)c2ccccc12', 6.60),
  ('O=C(NO)c1ccc(Cn2c3c(c4ccccc42)CCCC3)cc1', 5.60),
  ('Cn1cc(CNCC2CCN(c3ncc(C(=O)NO)cn3)CC2)c2ccccc21', 7.40),
  ('CC(=O)N1CCc2c(c3ccccc3n2Cc2ccc(C(=O)NO)cc2)C1', 5.70),
  ('C#Cc1cccc(Nc2ncnc3cc(OC)c(OCCCCCCC(=O)NO)cc23)c1', 6.40),
  ('O=C(NO)c1ccc(Cn2cc(CN3CCCC3)c3ccccc32)cc1', 8.40);

====

Form field: pIC50 (one value per entry).
TARGET_OF_ASSAY: Polyamine deacetylase HDAC10 (Homo sapiens, UniProt Q969S8)
Sequence (Q969S8 whole entry): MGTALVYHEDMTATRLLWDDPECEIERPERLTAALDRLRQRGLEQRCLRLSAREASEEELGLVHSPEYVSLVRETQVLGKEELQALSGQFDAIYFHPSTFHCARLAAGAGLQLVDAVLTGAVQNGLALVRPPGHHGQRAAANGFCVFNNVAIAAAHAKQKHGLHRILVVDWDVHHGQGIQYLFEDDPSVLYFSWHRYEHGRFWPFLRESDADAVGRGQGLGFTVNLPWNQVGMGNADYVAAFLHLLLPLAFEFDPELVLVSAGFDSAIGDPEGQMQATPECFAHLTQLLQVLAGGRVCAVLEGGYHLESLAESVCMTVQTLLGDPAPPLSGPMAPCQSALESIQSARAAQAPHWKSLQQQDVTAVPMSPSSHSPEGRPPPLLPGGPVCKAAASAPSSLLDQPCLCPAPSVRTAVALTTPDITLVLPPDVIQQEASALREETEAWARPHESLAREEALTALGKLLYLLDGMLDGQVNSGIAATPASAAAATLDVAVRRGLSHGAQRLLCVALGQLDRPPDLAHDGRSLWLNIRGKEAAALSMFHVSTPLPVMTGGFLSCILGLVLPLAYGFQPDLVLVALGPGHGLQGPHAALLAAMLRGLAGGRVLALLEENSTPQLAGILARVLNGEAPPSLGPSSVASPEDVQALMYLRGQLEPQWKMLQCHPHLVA
EXPERIMENTAL_DETAILS: Inhibition of tubastatin-Alexa647-tracer binding to recombinant GST-tagged HDAC10 (unknown origin) measured after 1 hr by TR-FRET assay
pIC50: −log10 of the molar value.
VALUE_KIND: pIC50

INSERT INTO measurements (compound, value_kind, observed) VALUES
  ('CC(C)(C)OC(=O)Nc1ccc(-c2cc(C(=O)NCCCCCCC(=O)NO)no2)cc1', 'pIC50', 6.50),
  ('O=C(NO)c1ccc(Cn2c3ccccc3c3ccccc32)cc1', 'pIC50', 5.70),
  ('Cc1c(C)n(Cc2ccc(C(=O)NO)cc2)c2ccccc12', 'pIC50', 6.50),
  ('O=C(CCCCCCNC(=O)c1cnc(N(c2ccccc2)c2ccccc2)nc1)NO', 'pIC50', 6.90),
  ('CN(C)Cc1nn(Cc2ccc(C(=O)NO)cc2)c2ccccc12', 'pIC50', 7.70),
  ('COCCc1cn(Cc2ccc(C(=O)NO)cc2)c2ccccc12', 'pIC50', 6.90),
  ('O=C(NO)c1ccc(Cn2c3c(c4ccccc42)CSCC3)cc1', 'pIC50', 6.50),
  ('CN(C)Cc1cn(Cc2ccc(C(=O)NO)cc2)c2ccccc12', 'pIC50', 8.30),
  ('C#Cc1cccc(Nc2ncnc3cc(OC)c(OCCCCCCC(=O)NO)cc23)c1', 'pIC50', 6.90),
  ('CC(C)(C)c1cc2ccccc2n1Cc1ccc(C(=O)NO)cc1', 'pIC50', 5.30),
  ('CN(C)CCc1cn(Cc2ccc(C(=O)NO)cc2)c2ccccc12', 'pIC50', 7.70),
  ('O=C(NO)c1ccc(Cn2cc(CN3CCCC3)c3ccccc32)cc1', 'pIC50', 8.40),
  ('CC(C)(C)OC(=O)NCc1cn(Cc2ccc(C(=O)NO)cc2)c2ccccc12', 'pIC50', 6.80),
  ('Cn1cncc1-c1cn(Cc2ccc(C(=O)NO)cc2)c2ccccc12', 'pIC50', 7.60),
  ('O=C(NO)c1ccc(CC(=O)N(CCO)c2ccccc2)cc1', 'pIC50', 7.10),
  ('Cn1cc(CNCC2CCN(c3ncc(C(=O)NO)cn3)CC2)c2ccccc21', 'pIC50', 8.00),
  ('O=C(NO)c1ccc(Cn2c3c(c4ccccc42)COCC3)cc1', 'pIC50', 6.20),
  ('CC(=O)N1CCc2c(c3ccccc3n2Cc2ccc(C(=O)NO)cc2)C1', 'pIC50', 6.30),
  ('O=C(NO)c1ccc(Cn2ccc3ccccc32)cc1', 'pIC50', 7.20),
  ('CN1CCCC1c1cn(Cc2ccc(C(=O)NO)cc2)c2ccccc12 (racemic)', 'pIC50', 8.30),
  ('O=C(NO)c1ccc(Cn2cc(CCO)c3ccccc32)cc1', 'pIC50', 7.10),
  ('O=C(NO)c1ccc(Cn2c3c(c4ccccc42)CCCC3)cc1', 'pIC50', 6.00),
  ('CN1CCc2c(n(Cc3ccc(C(=O)NO)cc3)c3ccccc23)C1', 'pIC50', 6.70);

====

Form field: pIC50 (one value per entry).
TARGET_OF_ASSAY: Polyamine deacetylase HDAC10 (Homo sapiens, UniProt Q969S8)
EXPERIMENTAL_DETAILS: Inhibition of dye-labeled tracer binding to HDAC10 (unknown origin) transfected in human HeLa cells measured after 2 hrs by nano-luciferase reporter gene-based BRET assay
Format: cell-based
pIC50: −log10 of the molar value.
VALUE_KIND: pIC50

INSERT INTO assay_data (molecule, target_of_assay, sign_qualifier, observed) VALUES
  ('O=C(NO)c1ccc(Cn2c3c(c4ccccc42)CSCC3)cc1', 'Polyamine deacetylase HDAC10 (Homo sapiens, UniProt Q969S8)', '=', 6.40),
  ('CC(C)(C)OC(=O)Nc1ccc(-c2cc(C(=O)NCCCCCCC(=O)NO)no2)cc1', 'Polyamine deacetylase HDAC10 (Homo sapiens, UniProt Q969S8)', '=', 6.10),
  ('CC(C)(C)c1cc2ccccc2n1Cc1ccc(C(=O)NO)cc1', 'Polyamine deacetylase HDAC10 (Homo sapiens, UniProt Q969S8)', '<', 4.40),
  ('Cn1cncc1-c1cn(Cc2ccc(C(=O)NO)cc2)c2ccccc12', 'Polyamine deacetylase HDAC10 (Homo sapiens, UniProt Q969S8)', '=', 7.30),
  ('O=C(NO)c1ccc(Cn2ccc3ccccc32)cc1', 'Polyamine deacetylase HDAC10 (Homo sapiens, UniProt Q969S8)', '=', 6.80),
  ('O=C(NO)c1ccc(Cn2c3c(c4ccccc42)COCC3)cc1', 'Polyamine deacetylase HDAC10 (Homo sapiens, UniProt Q969S8)', '=', 6.00),
  ('COCCc1cn(Cc2ccc(C(=O)NO)cc2)c2ccccc12', 'Polyamine deacetylase HDAC10 (Homo sapiens, UniProt Q969S8)', '=', 6.70),
  ('CN1CCCC1c1cn(Cc2ccc(C(=O)NO)cc2)c2ccccc12 (racemic)', 'Polyamine deacetylase HDAC10 (Homo sapiens, UniProt Q969S8)', '=', 8.30),
  ('CN1CCc2c(n(Cc3ccc(C(=O)NO)cc3)c3ccccc23)C1', 'Polyamine deacetylase HDAC10 (Homo sapiens, UniProt Q969S8)', '=', 6.80),
  ('Cc1c(C)n(Cc2ccc(C(=O)NO)cc2)c2ccccc12', 'Polyamine deacetylase HDAC10 (Homo sapiens, UniProt Q969S8)', '=', 6.20),
  ('CN(C)Cc1cn(Cc2ccc(C(=O)NO)cc2)c2ccccc12', 'Polyamine deacetylase HDAC10 (Homo sapiens, UniProt Q969S8)', '=', 8.40),
  ('O=C(NO)c1ccc(CC(=O)N(CCO)c2ccccc2)cc1', 'Polyamine deacetylase HDAC10 (Homo sapiens, UniProt Q969S8)', '=', 6.50);

====

TARGET_OF_ASSAY: Histone deacetylase 3/Nuclear receptor corepressor 2 (HDAC3/NCoR2) (Homo sapiens, UniProt O15379)
Sequence (O15379 whole entry, the tested form may be a part): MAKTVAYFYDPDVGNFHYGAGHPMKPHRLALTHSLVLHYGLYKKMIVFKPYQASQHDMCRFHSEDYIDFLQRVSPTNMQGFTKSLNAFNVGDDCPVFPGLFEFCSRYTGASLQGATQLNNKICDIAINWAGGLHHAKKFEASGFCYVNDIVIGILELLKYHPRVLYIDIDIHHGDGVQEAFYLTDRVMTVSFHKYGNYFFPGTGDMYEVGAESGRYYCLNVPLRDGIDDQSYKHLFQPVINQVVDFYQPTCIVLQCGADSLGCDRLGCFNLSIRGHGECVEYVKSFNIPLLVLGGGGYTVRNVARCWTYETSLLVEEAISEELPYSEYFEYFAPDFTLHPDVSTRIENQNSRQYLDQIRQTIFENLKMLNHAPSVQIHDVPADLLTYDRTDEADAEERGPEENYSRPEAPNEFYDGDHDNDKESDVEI
Sequence (Q9Y618 whole entry, further chain, the tested form may be a part): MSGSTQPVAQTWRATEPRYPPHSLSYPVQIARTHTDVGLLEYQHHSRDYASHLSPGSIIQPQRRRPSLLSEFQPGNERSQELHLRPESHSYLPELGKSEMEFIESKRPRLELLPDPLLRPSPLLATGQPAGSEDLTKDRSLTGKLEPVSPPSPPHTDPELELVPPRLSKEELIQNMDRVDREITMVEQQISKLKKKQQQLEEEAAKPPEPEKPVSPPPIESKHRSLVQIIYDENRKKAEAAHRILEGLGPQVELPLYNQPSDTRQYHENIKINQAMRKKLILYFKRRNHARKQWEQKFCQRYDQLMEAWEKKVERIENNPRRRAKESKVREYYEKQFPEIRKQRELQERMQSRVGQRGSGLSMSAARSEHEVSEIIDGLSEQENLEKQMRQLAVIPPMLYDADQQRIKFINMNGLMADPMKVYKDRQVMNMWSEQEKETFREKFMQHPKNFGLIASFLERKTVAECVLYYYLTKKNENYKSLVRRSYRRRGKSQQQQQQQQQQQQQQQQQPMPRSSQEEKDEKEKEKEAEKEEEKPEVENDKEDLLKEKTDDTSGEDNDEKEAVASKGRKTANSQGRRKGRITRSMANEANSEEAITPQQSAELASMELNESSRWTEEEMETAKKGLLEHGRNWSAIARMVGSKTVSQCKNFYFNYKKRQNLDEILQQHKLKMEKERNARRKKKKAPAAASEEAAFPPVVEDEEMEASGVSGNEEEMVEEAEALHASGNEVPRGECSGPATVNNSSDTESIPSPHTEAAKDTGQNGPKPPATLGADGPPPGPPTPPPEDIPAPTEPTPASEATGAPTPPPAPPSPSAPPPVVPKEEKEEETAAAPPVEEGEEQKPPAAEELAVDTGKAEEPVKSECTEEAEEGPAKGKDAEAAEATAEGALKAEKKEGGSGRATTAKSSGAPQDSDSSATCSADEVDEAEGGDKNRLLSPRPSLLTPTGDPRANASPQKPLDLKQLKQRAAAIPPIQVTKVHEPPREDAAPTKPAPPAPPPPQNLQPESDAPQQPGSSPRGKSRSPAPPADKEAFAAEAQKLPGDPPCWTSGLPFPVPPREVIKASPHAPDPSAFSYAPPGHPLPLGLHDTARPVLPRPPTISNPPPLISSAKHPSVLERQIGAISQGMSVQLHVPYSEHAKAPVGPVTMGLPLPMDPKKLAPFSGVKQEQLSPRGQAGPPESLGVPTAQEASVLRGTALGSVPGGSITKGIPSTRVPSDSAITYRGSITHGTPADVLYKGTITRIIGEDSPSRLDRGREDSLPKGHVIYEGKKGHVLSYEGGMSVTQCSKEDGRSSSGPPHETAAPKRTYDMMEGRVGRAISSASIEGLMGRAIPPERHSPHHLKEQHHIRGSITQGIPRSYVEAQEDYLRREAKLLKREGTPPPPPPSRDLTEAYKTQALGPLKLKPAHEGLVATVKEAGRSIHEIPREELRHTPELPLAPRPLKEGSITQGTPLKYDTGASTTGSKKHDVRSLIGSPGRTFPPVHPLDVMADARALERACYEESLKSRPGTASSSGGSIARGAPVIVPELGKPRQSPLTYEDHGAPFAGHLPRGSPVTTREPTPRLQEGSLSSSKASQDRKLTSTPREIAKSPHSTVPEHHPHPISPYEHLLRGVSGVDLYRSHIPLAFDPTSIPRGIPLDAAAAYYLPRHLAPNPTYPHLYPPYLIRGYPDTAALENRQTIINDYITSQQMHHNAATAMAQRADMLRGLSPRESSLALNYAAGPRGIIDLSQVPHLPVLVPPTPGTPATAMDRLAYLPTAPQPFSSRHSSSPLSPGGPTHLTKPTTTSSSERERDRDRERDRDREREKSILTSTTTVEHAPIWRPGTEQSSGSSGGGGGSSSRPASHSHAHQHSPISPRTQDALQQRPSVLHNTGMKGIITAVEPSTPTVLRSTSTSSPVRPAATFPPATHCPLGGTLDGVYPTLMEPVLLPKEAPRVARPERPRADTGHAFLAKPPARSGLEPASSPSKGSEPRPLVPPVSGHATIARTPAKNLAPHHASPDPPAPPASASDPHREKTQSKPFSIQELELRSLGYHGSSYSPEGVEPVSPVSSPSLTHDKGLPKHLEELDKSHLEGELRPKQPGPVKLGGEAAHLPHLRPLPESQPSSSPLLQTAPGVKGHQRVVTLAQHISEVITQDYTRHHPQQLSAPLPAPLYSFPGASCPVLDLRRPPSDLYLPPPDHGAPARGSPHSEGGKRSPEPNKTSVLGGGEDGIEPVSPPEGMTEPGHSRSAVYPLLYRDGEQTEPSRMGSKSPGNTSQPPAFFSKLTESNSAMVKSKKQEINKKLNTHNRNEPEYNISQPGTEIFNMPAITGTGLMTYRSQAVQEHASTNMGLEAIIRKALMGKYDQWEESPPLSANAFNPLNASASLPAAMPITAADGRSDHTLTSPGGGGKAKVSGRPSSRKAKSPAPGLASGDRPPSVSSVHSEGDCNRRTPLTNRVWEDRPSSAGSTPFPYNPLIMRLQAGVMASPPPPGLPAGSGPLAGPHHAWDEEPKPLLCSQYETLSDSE
EXPERIMENTAL_DETAILS: Inhibition of human recombinant full length C-terminal His-tagged HDAC3 (1 to 428 residues)/N-terminal GST-tagged NCOR2 (395 to 489 residues) expressed in baculovirus infected insect cells measured after 40 mins by HDAC-Glo1/2 luminescent assay
VALUE_KIND: IC50 (nM)

INSERT INTO measurements (compound, observed) VALUES
  ('Cc1c(C)n(Cc2ccc(C(=O)NO)cc2)c2ccccc12', 3160),
  ('Cn1cncc1-c1cn(Cc2ccc(C(=O)NO)cc2)c2ccccc12', 501),
  ('CN1CCc2c(n(Cc3ccc(C(=O)NO)cc3)c3ccccc23)C1', 3980),
  ('CN1CCCC1c1cn(Cc2ccc(C(=O)NO)cc2)c2ccccc12 (racemic)', 158),
  ('CN(C)Cc1nn(Cc2ccc(C(=O)NO)cc2)c2ccccc12', 794),
  ('CN(C)Cc1cn(Cc2ccc(C(=O)NO)cc2)c2ccccc12', 631),
  ('O=C(NO)c1ccc(Cn2cc(CN3CCCC3)c3ccccc32)cc1', 398),
  ('O=C(NO)c1ccc(Cn2c3c(c4ccccc42)COCC3)cc1', 1260);
